So I've got a bunch of sequences here, and I need their phosphorylation enrichment values.
Biological target: EPHB2 (UniProt P29323)
Sequence (P29323 whole entry, looked up): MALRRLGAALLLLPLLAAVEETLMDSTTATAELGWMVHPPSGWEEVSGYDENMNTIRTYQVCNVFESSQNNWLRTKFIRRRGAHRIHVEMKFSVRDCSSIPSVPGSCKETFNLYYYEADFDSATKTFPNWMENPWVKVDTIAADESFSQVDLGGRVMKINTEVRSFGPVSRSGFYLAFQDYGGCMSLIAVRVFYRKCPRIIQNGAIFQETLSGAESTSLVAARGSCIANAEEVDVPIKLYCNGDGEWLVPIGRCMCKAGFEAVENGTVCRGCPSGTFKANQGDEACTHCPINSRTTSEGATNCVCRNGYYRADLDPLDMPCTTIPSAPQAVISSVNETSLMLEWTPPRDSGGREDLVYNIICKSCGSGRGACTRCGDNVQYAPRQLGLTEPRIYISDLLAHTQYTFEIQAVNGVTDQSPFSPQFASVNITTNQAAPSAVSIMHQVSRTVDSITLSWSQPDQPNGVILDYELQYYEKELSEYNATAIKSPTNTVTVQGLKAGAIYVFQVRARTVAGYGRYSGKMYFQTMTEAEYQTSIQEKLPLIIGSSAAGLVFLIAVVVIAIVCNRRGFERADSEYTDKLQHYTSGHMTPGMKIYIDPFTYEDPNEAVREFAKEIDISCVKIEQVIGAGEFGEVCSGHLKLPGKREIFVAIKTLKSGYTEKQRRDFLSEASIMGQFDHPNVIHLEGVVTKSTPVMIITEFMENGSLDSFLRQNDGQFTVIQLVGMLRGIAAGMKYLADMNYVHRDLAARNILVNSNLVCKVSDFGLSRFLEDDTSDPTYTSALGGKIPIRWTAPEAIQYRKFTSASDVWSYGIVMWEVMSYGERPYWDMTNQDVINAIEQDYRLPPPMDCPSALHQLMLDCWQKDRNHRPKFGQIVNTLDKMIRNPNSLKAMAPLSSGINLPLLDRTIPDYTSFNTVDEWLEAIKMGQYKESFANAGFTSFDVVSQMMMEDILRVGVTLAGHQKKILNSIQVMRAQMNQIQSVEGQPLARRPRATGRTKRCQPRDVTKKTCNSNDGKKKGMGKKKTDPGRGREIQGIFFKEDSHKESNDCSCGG
Assay: phosphorylation enrichment, bacterial display (enrichment ratio); higher = better substrate or ligand; peptides without Tyr show the background;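 further: 11-residue human phosphosite peptides and single-mutation variants displayed on the E. coli surface, counted by deep sequencing, each peptide's frequency after selection divided by its frequency in the unselected input library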;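 further: frequency after pTyr selection over input frequency; kinase dosed for 20-30% of maximal phosphorylation in three min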
Write no unit; give the number alone.

Challenge: Which phosphorylation enrichment is listed for NTGDDYDLYGG [PTPN11_Y63_Y62D] ?
Response given: 1.05

Challenge: Moving on to ISSLLYELLEE [TRPC6_Y896_R895L]
Response given: 4.5

Challenge: How about PESCLYKESWL [IQGAP2_Y630] ?
Response given: 1.2

----------
Biological target: Fes (UniProt P07332)
Sequence (P07332 whole entry, looked up): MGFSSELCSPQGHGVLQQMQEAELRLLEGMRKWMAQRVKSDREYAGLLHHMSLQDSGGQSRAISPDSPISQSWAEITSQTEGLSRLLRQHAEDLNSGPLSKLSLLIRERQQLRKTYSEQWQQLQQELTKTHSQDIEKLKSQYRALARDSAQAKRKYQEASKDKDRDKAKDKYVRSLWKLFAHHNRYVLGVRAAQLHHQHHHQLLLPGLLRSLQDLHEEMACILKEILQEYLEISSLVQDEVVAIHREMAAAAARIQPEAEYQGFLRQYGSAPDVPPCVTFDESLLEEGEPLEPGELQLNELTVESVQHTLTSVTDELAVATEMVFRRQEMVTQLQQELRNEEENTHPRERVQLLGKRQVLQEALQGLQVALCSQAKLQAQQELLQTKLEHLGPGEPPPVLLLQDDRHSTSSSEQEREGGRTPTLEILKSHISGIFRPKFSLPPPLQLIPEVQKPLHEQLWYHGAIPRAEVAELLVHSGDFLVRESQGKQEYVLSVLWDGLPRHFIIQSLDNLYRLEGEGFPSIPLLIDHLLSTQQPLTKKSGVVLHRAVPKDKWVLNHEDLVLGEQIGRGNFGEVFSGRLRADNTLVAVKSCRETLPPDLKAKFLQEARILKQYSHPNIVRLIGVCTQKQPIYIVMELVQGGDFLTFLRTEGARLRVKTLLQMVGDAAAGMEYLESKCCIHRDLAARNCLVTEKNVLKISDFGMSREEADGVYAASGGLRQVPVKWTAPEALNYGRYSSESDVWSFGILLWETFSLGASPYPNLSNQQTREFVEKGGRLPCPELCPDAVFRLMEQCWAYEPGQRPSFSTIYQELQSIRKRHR
Test: phosphorylation enrichment, bacterial display (enrichment ratio); higher = better substrate or ligand; peptides without Tyr show the background
TEST_READOUT: phosphorylation enrichment
Write no unit; give the number alone.

Challenge: Hello, I am looking for reported phosphorylation enrichment with Fes (UniProt P07332) for DASAVYLRDFQ [PLCG2_Y242_H244R] . Could you help?
Response given: 0.963

Challenge: Field entry: KVGPGSLGSGG [RET_Y826_Y826S]
Response given: 0.489

Challenge: TEQMAYCPIQC [SHC4_Y403] ?
Response given: 1.02

Challenge: Here is the next sequence: VSLEAYCKHKY [RXRA_Y403_A398V]
Response given: 1.24

Challenge: Okay, and FPRAWCRRSIA [KIAA1109_Y4272_Y4272C] ?
Response given: 0.686

Challenge: // next record NRSSLYLVAGP [KIAA1614_Y1083]
Response given: 0.91

Challenge: Similarly, SSAETYSRMRL [NBEAL2_Y1835] ?
Response given: 0.577

Challenge: How about LARNMYDKEFF [MET_Y1230_D1228N_YF] ?
Response given: 1.01

Challenge: What do you get for VSRGRYRPQEC [B4GALT4_Y113] ?
Response given: 0.643

Challenge: And for EGNEQYEGFCV [GRIA3_Y451_R450Q_YF] ?
Response given: 1.41

Challenge: Please give the result for TSNQEYLFLSM [FGFR1_Y766_D768Y_YF] too.
Response given: 1.09

Challenge: Another sequence to check: MARDIYQASFF [LTK_Y672_R673Q_YF]
Response given: 0.887

Challenge: Try the sequence ADKAAYLQNLN [MYH1_Y389]
Response given: 0.747

Challenge: Repeat with INVTIYGKTFR [EFHC1_Y177_I174V]
Response given: 1.29

Challenge: Try this sequence too: MPLTKYLKRIK [CNGB3_Y200_E199K]
Response given: 0.623

Challenge: Next up: QGLRLYRSHLA [BTK_Y617_P619S]
Response given: 1.04

Challenge: Another sequence to look at: VDHFGYTKDDK [APOB_Y740]
Response given: 0.764

Challenge: Here is the next sequence: KIVQDYLEKFF [MMP8_Y36_T32I_YF]
Response given: 1.38

Challenge: Please do the same for YCRHNYGAVES [HLA-DRB1_Y112_V114A] as well.
Response given: 0.678

Challenge: Now consider CHSDDYVHISI [TSC1_Y406_L411I] and answer again.
Response given: 1.39

Challenge: Try this sequence next: RPAPQYPHQVP [ADAM12_Y895]
Response given: 1.02

Challenge: Check NFFEFYVDDPL [GCHFR_Y48_P53L_YF] too.
Response given: 1.11

Challenge: Next sequence up: PDGHEYIYVDP [PDGFRA_Y572]
Response given: 1.39

Challenge: // same read-out, input: SVTCTYSPAPN [TP53_Y126_L130P]
Response given: 1.14

Challenge: Please answer likewise for NYRPGYNNFYN [USH2A_Y467]
Response given: 0.705

Challenge: Then this sequence: RFLRGYRQHAY [HLA-A_Y137_D140H]
Response given: 1.04

Challenge: Cool, now VVVTKYCKEEL [ATP7B_Y1078_A1074V]
Response given: 1.37

Challenge: What about GFAGKYIAMVM [CYP19A1_Y441_C437Y_YF] ?
Response given: 0.858

Challenge: Next entry: SRDDYYETIAM [NPY1R_Y347_D346Y]
Response given: 1.01

Challenge: Could you do the same for KELAKYYKLHH [AK7_Y390_N389K] , please?
Response given: 0.472

Challenge: Entry PNRILYGDFRQ [MYH6_Y717] please
Response given: 1.02

Challenge: Input LNPLIYTLRNA [OR4C46_Y285_K288R]
Response given: 1.12

Challenge: // same read-out, input: TVQVAYYTMMM [SPATA17_Y83]
Response given: 1.85

Challenge: What about ITLPIYTKESE [ANK2_Y1455] ?
Response given: 1.19

Challenge: // next record VECQVYAEDPY [PCCA_Y401_R399Q]
Response given: 1.65

Challenge: Again, but for VMSGPYELKAL [IL1B_Y140]
Response given: 0.622

Challenge: Another sequence to look at: PDDPDYSLVDD [PSTPIP2_Y323_N322D]
Response given: 1.97

Challenge: Record: IRNRDYDDIDD [TTYH2_Y424_T419I]
Response given: 0.887

Challenge: Same question for EKGEEYGGGGG [TUBA1A_Y451_E447K] please.
Response given: 0.855

Challenge: EQSGSYIWVLA [DLG1_Y895_P899L] , same question.
Response given: 1.32

Challenge: One more sequence: VDGSVYKLHPS [GCK_Y413]
Response given: 0.655

Challenge: Please answer likewise for TEALYYTDDTA [ADPRS_Y75]
Response given: 2.09

Challenge: Queued: EWKQNYEESQS [MYH7_Y1460_K1459N]
Response given: 1.25

Challenge: Request: SLVVPYEPPEV [TP53_Y220_V216L]
Response given: 1.29

Challenge: Consider next the sequence SVVVTYEPPEV [TP53_Y220_P219T] in the same way.
Response given: 1.32

Challenge: Check KALKQYRASPS [DDX27_Y763_G766S] too.
Response given: 0.423

meta.source: the supplement of paper PMC10065799
